# System: CP211
# protocol: qHTS profiling for inhibitors of Plasmodium falciparum proliferation (AID 504749); further: nearly all actives have a fitted effect of over 60% in size
# details: P. falciparum in erythrocytes, SYBR Green DNA, 72 h; series mostly up to 28.7 µM
Records with an inconclusive call do not appear. Calls of active or inactive are those of the source. The call rests on the fitted dose curve; in most records, active means well fitted inhibition curve with a large enough effect; inconclusive means small, poorly fitted or top-dose-only effect; inactive means flat fitted curve, though single readings scatter.
metric name: outcome

- compound: "COc1cc(OC)c(C(=O)CCCN2CCCC2)c(OC)c1"
  metric name: "outcome"
  result: "inactive"
- compound: "CC(C)[C@H](N)C(=O)OCCOCn1cnc2c(=O)[nH]c(N)nc21"
  metric name: "outcome"
  result: "inactive"
- compound: "O=C(NCCO[N+](=O)[O-])c1cccnc1"
  metric name: "outcome"
  result: "inactive"
- compound: "N[C@@H](Cc1cc(I)c(Oc2cc(I)c(O)c(I)c2)c(I)c1)C(=O)O"
  metric name: "outcome"
  result: "inactive"
- compound: "CN(C)CCc1c[nH]c2ccc(Cn3cncn3)cc12"
  metric name: "outcome"
  result: "inactive"

Moving on to the next compound.
IN: # value lookup — system CP211, readout outcome, item COc1cc2c(cc1OC)C1CC(=O)C(CC(C)C)CN1CC2 (stereo unspecified)
OUT: inactive

###

# protocol: Quantitative High-Throughput drug screen in 47 multiple myeloma cell lines against the NCATS MIPE library collection: XG6_PLB cell viability assay (AID 1919865); further: nearly all actives have a fitted effect of over 40% in size
# details: XG6 myeloma viability, CellTiter-Glo ATP luminescence, 48 h; series mostly up to 45.8 µM
Records with an inconclusive call do not appear. The source made the active and inactive calls. The call rests on the fitted dose curve; in most records, active means well fitted cell-killing curve with a large enough effect; inconclusive means small, poorly fitted or top-dose-only effect, or effect the other way; inactive means no such curve, though single readings can be large or run the other way. Peptide text beside a SMILES is read from it.
Field 'call' accepts YES = active, NO = inactive

IN: Please share the test call associated with O=C(CS(=O)Cc1ccco1)NCC=CCOc1cc(CN2CCCCC2)ccn1 (stereo not given) .
OUT: YES

IN: Please share the test call associated with COC(=O)[C@H](Cc1ccccc1)NC(=O)[C@@H](N)CC(=O)O (H-Asp-Phe-OMe) .
OUT: YES

IN: Please share the test call associated with CCOC(=O)C(C)Oc1cccc2c(=O)n(CC(=O)Nc3ccc4c(c3)OCCO4)ccc12 (stereo not given) .
OUT: NO

IN: Please share the test call associated with CCCCN(CCCC)CCC(O)c1cc2c(Cl)cc(Cl)cc2c2cc(C(F)(F)F)ccc12 (stereo not given) .
OUT: YES

IN: Please share the test call associated with CC1(C)C(=O)N(CCN2CCC(C(=O)c3ccc(F)cc3)CC2)c2ccccc21 .
OUT: YES

IN: Please share the test call associated with Nc1cc(C(Cl)=C(Cl)Cl)c(S(N)(=O)=O)cc1S(N)(=O)=O .
OUT: YES

IN: Please share the test call associated with Nc1ccc(S(N)(=O)=O)cc1 .
OUT: NO

IN: Please share the test call associated with O=Nc1c(-c2c(O)[nH]c3cc(Br)ccc23)[nH]c2ccccc12 .
OUT: YES

IN: Please share the test call associated with CC(C)(S)[C@@H](N)C(=O)O .
OUT: NO

IN: Please share the test call associated with Cc1nc2n(c(=O)c1CCN1CCC(c3noc4cc(F)ccc34)CC1)CCCC2 .
OUT: NO

###

# Tested on: AA1029
# protocol: qHTS profiling for inhibitors of Plasmodium falciparum proliferation (AID 504749); further: nearly all actives have a fitted effect of over 60% in size
# details: P. falciparum in erythrocytes, SYBR Green DNA, 72 h; series mostly up to 28.7 µM
Records with an inconclusive call do not appear. Activity calls are given as the source filed them. Calls follow the shape of the dose curve; as a rule, active = well fitted inhibition curve with a large enough effect; inconclusive = small, poorly fitted or top-dose-only effect; inactive = flat fitted curve, though single readings scatter. Peptide text beside a SMILES is read from it.
Field 'call' accepts active, inactive

IN: Please share the test call associated with O=C(O)CCNC(=O)c1ccc(N=Nc2ccc(O)c(C(=O)O)c2)cc1 .
OUT: inactive

IN: Please share the test call associated with C=CCc1cc(OC)c(O)c(C(=O)NCCO)c1 .
OUT: inactive

IN: Please share the test call associated with COCCCOc1ccnc(CS(=O)c2nc3ccccc3[nH]2)c1C (stereo not drawn) .
OUT: inactive

IN: Please share the test call associated with COc1ccc(C2(C#N)CCC(C(=O)O)CC2)cc1OC1CCCC1 (stereo not drawn) .
OUT: inactive

IN: Please share the test call associated with CCCCCCCCCCCCCCCCCCCCCCO .
OUT: inactive

IN: Please share the test call associated with Cc1cc(=O)oc2cc(O)ccc12 .
OUT: inactive

IN: Please share the test call associated with O=C(O)c1cccc(-c2noc(-c3ccccc3F)n2)c1 .
OUT: inactive

IN: Please share the test call associated with Cc1ccc(NC(=O)c2ccc(CN3CCN(C)CC3)cc2)cc1Nc1nccc(-c2cccnc2)n1 .
OUT: active

IN: Please share the test call associated with CCCc1cc(=O)[nH]c(=S)[nH]1 .
OUT: inactive

IN: Please share the test call associated with Cc1nc2n(c(=O)c1CCN1CCC(c3noc4cc(F)ccc34)CC1)CCCC2 .
OUT: inactive

IN: Please share the test call associated with O=C(CS(=O)Cc1ccco1)NCC=CCOc1cc(CN2CCCCC2)ccn1 (stereo not drawn) .
OUT: inactive

IN: Please share the test call associated with CC(C)(S)[C@@H](N)C(=O)O .
OUT: inactive

IN: Please share the test call associated with Nc1nc(Cl)nc2c1ncn2[C@H]1C[C@H](O)[C@@H](CO)O1 .
OUT: inactive

IN: Please share the test call associated with CCC1=C(C)CN(C(=O)NCCc2ccc(S(=O)(=O)NC(=O)NC3CCC(C)CC3)cc2)C1=O (stereo not drawn) .
OUT: inactive

IN: Please share the test call associated with Cc1cc2c(s1)Nc1ccccc1N=C2N1CCN(C)CC1 .
OUT: inactive

IN: Please share the test call associated with COc1cc(OC)c(C(=O)CCCN2CCCC2)c(OC)c1 .
OUT: inactive

IN: Please share the test call associated with Clc1ccc(C(Cn2ccnc2)OCc2ccsc2Cl)c(Cl)c1 (stereo not drawn) .
OUT: active

IN: Please share the test call associated with CCCCCCCCOc1ccccc1C(=O)Nc1ccc(C(=O)OCC[N+](C)(CC)CC)cc1 .
OUT: active

IN: Please share the test call associated with O=C(O)c1cccnc1Nc1cccc(C(F)(F)F)c1 .
OUT: inactive

IN: Please share the test call associated with N[C@@H](Cc1cc(I)c(Oc2cc(I)c(O)c(I)c2)c(I)c1)C(=O)O .
OUT: inactive

IN: Please share the test call associated with NNc1nncc2ccccc12 .
OUT: inactive

IN: Please share the test call associated with COC(=O)[C@H](Cc1ccccc1)NC(=O)[C@@H](N)CC(=O)O (H-Asp-Phe-OMe) .
OUT: inactive

IN: Please share the test call associated with Cc1cccc(C)c1OCC(=O)N[C@@H](Cc1ccccc1)[C@@H](O)C[C@H](Cc1ccccc1)NC(=O)[C@H](C(C)C)N1CCCNC1=O .
OUT: active
